Below is a list of entries, each paired with its recorded melting point value.
Structures can show the parent of a compound that is named as a salt.

Worked cases, melting point given:
>>> result("CNCCCN(C)c1ccc2c(NC(=O)C[C@@H](C)c3ccccc3)c(Cl)ccc2n1 (as salt: trifluoroacetate) [Example 3, ditrifluoroacetate]")
"159 to 162 °C"
>>> result("O=C(CCc1ccccc1Cl)Nc1c(Cl)ccc2nc(N3CCNCC3)ccc12 (as salt: hydrochloride) [Example 10, dihydrochloride]")
"265 to 270 °C"
>>> result("C[C@H](CC(=O)Nc1c(Cl)ccc2nc(NCCNCCO)ccc12)c1ccccc1 (as salt: hydrochloride) [Example 9, dihydrochloride]")
"178 to 182 °C"
>>> result("O=C(CCc1ccccc1Cl)Nc1c(Cl)ccc2nc(N3CC[C@H](NCCO)C3)ccc12 [Example 19]")
"180 to 182 °C"
>>> result("O=C(CCc1ccc(Cl)cc1)Nc1c(Cl)ccc2nc(N3CCNCC3)ccc12 (as salt: hydrochloride) [Example 12, dihydrochloride]")
"183 to 188 °C"

Please examine the following record next.
Exam item: Give the value of melting point reported for the following: C[C@H](CC(=O)Nc1c(Cl)ccc2nc(N3CC[C@H](NCCCO)C3)ccc12)c1ccccc1 [Example 15]
Marked response: 155 to 158 °C
